The reported numbers originate from patent US20090304692A1.

# Experimental system: PI3K-α (Homo sapiens, UniProt P42336)
# Sequence (P42336 whole entry, species assumed): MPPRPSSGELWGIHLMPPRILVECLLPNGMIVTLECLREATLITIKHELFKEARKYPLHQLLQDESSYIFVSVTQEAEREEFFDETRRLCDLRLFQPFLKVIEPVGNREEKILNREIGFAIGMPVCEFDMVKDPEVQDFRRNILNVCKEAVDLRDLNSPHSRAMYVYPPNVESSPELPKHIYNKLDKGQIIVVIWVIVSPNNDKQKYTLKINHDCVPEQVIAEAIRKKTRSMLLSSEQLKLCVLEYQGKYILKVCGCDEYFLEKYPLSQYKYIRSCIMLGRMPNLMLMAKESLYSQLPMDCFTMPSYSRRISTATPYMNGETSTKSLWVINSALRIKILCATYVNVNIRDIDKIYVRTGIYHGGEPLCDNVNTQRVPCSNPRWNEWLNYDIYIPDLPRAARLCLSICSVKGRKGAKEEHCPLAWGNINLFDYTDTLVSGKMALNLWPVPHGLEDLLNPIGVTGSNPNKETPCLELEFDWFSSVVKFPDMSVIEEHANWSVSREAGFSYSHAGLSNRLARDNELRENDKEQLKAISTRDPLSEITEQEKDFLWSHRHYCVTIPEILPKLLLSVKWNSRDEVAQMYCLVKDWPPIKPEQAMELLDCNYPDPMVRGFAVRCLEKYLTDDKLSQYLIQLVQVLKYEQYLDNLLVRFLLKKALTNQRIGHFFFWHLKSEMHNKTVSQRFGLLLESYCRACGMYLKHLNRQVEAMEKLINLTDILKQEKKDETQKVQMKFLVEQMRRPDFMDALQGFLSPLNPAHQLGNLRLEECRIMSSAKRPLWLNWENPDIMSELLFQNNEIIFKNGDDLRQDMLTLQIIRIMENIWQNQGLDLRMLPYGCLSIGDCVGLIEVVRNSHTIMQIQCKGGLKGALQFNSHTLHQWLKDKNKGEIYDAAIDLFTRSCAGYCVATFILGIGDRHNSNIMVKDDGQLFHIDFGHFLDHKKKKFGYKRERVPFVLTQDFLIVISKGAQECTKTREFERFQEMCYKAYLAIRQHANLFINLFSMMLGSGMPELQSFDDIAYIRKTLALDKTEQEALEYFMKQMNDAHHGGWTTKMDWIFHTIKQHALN
# Sequence (P27986 whole entry partner, species assumed): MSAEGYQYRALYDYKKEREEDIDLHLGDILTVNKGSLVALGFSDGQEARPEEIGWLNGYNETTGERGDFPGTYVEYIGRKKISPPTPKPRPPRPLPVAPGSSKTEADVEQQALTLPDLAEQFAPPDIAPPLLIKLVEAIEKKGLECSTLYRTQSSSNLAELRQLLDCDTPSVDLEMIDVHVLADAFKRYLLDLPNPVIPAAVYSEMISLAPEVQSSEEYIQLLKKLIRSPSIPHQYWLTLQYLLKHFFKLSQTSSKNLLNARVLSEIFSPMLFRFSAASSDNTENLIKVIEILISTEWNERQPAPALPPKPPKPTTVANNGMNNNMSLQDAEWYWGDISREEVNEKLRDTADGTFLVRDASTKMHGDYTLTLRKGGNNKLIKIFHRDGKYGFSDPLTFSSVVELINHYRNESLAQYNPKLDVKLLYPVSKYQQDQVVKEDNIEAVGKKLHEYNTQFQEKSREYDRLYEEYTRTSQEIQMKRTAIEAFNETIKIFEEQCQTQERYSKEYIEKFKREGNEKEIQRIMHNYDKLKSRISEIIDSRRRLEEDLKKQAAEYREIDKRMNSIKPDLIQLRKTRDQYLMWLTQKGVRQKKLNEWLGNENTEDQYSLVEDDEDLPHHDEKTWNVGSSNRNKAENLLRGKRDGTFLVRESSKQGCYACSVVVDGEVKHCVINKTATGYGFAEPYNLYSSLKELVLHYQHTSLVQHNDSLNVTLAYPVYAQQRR
# Assay procedure: PI3K-alpha fluorescence polarization assay
# Particulars: read-out: IC50 PI3Kα; listed as 729
Assay endpoint: pIC50
Give bare numbers, as −log10 of the molar value.

Please look up its pIC50: CN(C)CCOc1ccc(NC(=O)Nc2ccc(-c3nc(N4CCOCC4)nc(N4C5CCC4COC5)n3)cc2)cc1
7.84

* * *

# Experimental system: Human mTOR (FLAG-TOR) (Homo sapiens, UniProt P42345)
# Sequence (P42345 1360-2549 limits assumed): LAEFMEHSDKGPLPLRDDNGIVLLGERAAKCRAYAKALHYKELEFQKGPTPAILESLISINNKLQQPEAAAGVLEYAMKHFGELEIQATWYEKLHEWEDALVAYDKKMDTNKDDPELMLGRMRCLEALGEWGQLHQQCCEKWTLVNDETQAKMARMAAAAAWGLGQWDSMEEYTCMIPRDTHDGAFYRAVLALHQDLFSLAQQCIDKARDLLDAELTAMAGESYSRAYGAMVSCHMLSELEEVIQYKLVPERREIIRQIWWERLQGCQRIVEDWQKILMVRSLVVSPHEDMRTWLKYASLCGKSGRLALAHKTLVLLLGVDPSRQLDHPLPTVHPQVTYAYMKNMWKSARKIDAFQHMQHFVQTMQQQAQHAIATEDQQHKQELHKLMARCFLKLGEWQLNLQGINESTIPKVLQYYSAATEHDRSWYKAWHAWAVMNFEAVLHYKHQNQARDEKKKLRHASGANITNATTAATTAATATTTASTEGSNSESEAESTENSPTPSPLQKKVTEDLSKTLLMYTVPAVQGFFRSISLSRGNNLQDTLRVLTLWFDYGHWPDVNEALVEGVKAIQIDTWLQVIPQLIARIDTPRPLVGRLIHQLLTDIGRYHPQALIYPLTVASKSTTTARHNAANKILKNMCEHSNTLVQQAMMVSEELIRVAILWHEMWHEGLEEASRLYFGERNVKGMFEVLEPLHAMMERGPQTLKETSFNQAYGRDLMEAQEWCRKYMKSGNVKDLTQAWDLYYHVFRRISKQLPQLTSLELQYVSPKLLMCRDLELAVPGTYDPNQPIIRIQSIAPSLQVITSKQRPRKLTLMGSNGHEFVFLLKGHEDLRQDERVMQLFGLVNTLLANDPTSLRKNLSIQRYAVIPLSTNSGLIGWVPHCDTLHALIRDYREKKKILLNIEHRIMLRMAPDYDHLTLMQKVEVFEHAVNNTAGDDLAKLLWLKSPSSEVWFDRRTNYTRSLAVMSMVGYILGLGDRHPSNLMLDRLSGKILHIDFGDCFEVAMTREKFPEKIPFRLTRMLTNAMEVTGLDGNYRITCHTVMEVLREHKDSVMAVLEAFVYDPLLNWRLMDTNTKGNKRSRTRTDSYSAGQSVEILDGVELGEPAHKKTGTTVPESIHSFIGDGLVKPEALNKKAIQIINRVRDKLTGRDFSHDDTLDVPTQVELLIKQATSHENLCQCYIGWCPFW
# Assay procedure: mTOR kinase assay (DELFIA format, purified enzyme)
# Type: biochemical
# Particulars: read-out: IC50 mTOR
Assay endpoint: pIC50
Numbers only, as −log10 of the molar value.

Some solved entries appear below for comparison.
CCc1nc(-c2ccc(NC(=O)Nc3ccc(N4CCN(C)CC4)cc3)cc2)nc(N2CCOCC2)n1	7.68
CC(C)Nc1nc(-c2ccc(NC(=O)Nc3ccncc3)cc2)nc(N2C3CCC2COC3)n1	8.41

Answer for every listed entry: what is its pIC50? The entries follow.
1. CN1CCN(C(=O)Nc2ccc(NC(=O)Nc3ccc(-c4nc(N5CCOCC5)nc(N5CCOCC5)n4)cc3)cc2)CC1
2. CN(C)C1CCN(C(=O)c2ccc(NC(=O)Nc3ccc(-c4nc(NS(=O)(=O)c5ccccc5)nc(N5CCOCC5)n4)cc3)cc2)CC1
3. O=C(Nc1ccc(CO)cc1)Nc1ccc(-c2nc(N3CC4CCC(C3)O4)nc(N3CC4CCC(C3)O4)n2)cc1
4. CCCCc1nc(-c2ccc(NC(=O)Nc3ccncc3)cc2)nc(N2CCOCC2)n1

1: 8.63; 2: 7.05; 3: 9.54; 4: 8.22

Batch of 4 molecules: report pIC50 for each.
1. COCCNC(=O)c1ccc(NC(=O)Nc2ccc(-c3nc(N4CCOCC4)nc(N4CCN(C(=O)N(C)C)CC4)n3)cc2)cc1
2. O=C(Nc1ccc(C(=O)NCCN2CCOCC2)cc1)Nc1ccc(-c2nc(N3CCOCC3)nc(N3C4CCC3COC4)n2)cc1
3. COC(=O)c1ccc(NC(=O)Nc2ccc(-c3nc(N4CCCOCC4)nc(N4CCOCC4)n3)cc2)cc1
4. COCCNC(=O)c1ccc(NC(=O)Nc2ccc(-c3nc(-c4ccc(C)cc4)nc(N4CCOCC4)n3)cc2)cc1

8.52
9.26
8.70
7.91
